System: Rattus norvegicus
Assay: In vivo agonist angiotensin II like activity was measured in rat blood pressure increase by a 1 ug iv injection
Type: functional
Non-standard residues stand in square brackets, D forms with d. Residues, ends and D or L forms follow the SMILES beside them. 3Thi = N[C@@H](Cc1ccsc1)C(=O)O; Sar = CNCC(=O)O
test readout: BP increase (mmHg)
One number for each entry, in mmHg.

Examples with answers:
compound: CC[C@H](C)[C@H](NC(=O)[C@@H]1CCCN1C(=O)[C@H](Cc1c[nH]cn1)NC(=O)[C@@H](NC(=O)[C@H](Cc1ccc(O)cc1)NC(=O)[C@@H](NC(=O)[C@@H](C)N)C(C)C)[C@@H](C)CC)C(=O)O
experimental value: 5
--
compound: CC[C@H](C)[C@H](NC(=O)[C@@H]1CCCN1C(=O)[C@H](Cc1c[nH]cn1)NC(=O)[C@@H](NC(=O)[C@H](Cc1ccc(O)cc1)NC(=O)[C@@H](NC(=O)[C@@H](CCCCN)NC(=O)CNC)C(C)C)[C@@H](C)CC)C(=O)O
experimental value: 12.5
--
compound: CC[C@H](C)[C@H](NC(=O)[C@@H]1CCCN1C(=O)[C@H](Cc1ccsc1)NC(=O)[C@@H](NC(=O)[C@H](Cc1ccc(O)cc1)NC(=O)[C@@H](NC(=O)[C@H](CCCN=C(N)N)NC(=O)CNC)C(C)C)[C@@H](C)CC)C(=O)O (H-[Sar]RVYI[3Thi]PI-OH)
experimental value: 12.5

We now examine a further compound.
BP increase of CC[C@H](C)[C@H](NC(=O)[C@@H]1CCCN1C(=O)[C@H](Cc1c[nH]cn1)NC(=O)[C@@H](NC(=O)[C@H](Cc1ccc(O)cc1)NC(=O)[C@@H](NC(=O)[C@@H](CCCN=C(N)N)NC(=O)CNC)C(C)C)[C@@H](C)CC)C(=O)O , assay on Rattus norvegicus, is 10

---

Test system: Rattus norvegicus
Assay: In vivo agonist angiotensin II like activity was measured in rat blood pressure increase by a 1 ug iv injection
Format: functional
Non-standard residues stand in square brackets, D forms with d. Residues, ends and D or L forms follow the SMILES beside them. Aib = CC(C)(N)C(=O)O; Sar = CNCC(=O)O
Assignment: determine reported log10 of BP increase for the given compounds.
A value of 2 here means BP increase of 100 in mmHg, since values are log10.

compound: CC[C@H](C)[C@H](NC(=O)[C@@H]1CCCN1C(=O)[C@H](Cc1c[nH]cn1)NC(=O)[C@@H](NC(=O)[C@H](Cc1ccc(O)cc1)NC(=O)[C@@H](NC(=O)[C@H](CCCCN=C(N)N)NC(=O)CNC)C(C)C)[C@@H](C)CC)C(=O)O
log10 of BP increase: 0.88
--
compound: CC[C@H](C)[C@H](NC(=O)[C@@H]1CCCN1C(=O)[C@H](Cc1cncn1C)NC(=O)[C@@H](NC(=O)[C@H](Cc1ccc(O)cc1)NC(=O)[C@@H](NC(=O)[C@H](CCCN=C(N)N)NC(=O)CNC)C(C)C)[C@@H](C)CC)C(=O)O
log10 of BP increase: 0.40
--
compound: CC[C@H](C)[C@H](NC(=O)[C@@H]1CCCN1C(=O)[C@H](Cc1c[nH]cn1)NC(=O)[C@@H](NC(=O)[C@H](Cc1ccc(O)cc1)NC(=O)[C@@H](NC(=O)[C@H](CCCN=C(N)N)NC(=O)CNC)C(C)C)[C@@H](C)CC)C(=O)O
log10 of BP increase: 1.01
--
compound: CC[C@H](C)[C@H](NC(=O)[C@@H]1CCCN1C(=O)[C@H](Cc1c[nH]c2ccccc12)NC(=O)[C@@H](NC(=O)[C@H](Cc1ccc(O)cc1)NC(=O)[C@@H](NC(=O)[C@H](CCCN=C(N)N)NC(=O)CNC)C(C)C)[C@@H](C)CC)C(=O)O (H-[Sar]RVYIWPI-OH)
log10 of BP increase: 0.88
--
compound: CC[C@H](C)[C@H](NC(=O)[C@@H]1CCCN1C(=O)[C@H](Cc1c[nH]cn1)NC(=O)[C@@H](NC(=O)[C@H](Cc1ccc(O)cc1)NC(=O)[C@@H](NC(=O)CN(C)C(=O)CNC)C(C)C)[C@@H](C)CC)C(=O)O (H-[Sar][Sar]VYIHPI-OH)
log10 of BP increase: 0.93
--
compound: CC[C@H](C)[C@H](NC(=O)[C@@H]1CCCN1C(=O)[C@H](Cc1c[nH]cn1)NC(=O)[C@@H](NC(=O)[C@H](Cc1ccc(O)cc1)NC(=O)[C@@H](NC(=O)[C@H](N)CCCN=C(N)N)C(C)C)[C@@H](C)CC)C(=O)O
log10 of BP increase: 0.70

Need log10 of BP increase for each of these compounds.
1. CC[C@H](C)[C@H](NC(=O)[C@H](Cc1ccc(O)cc1)NC(=O)[C@@H](NC(=O)[C@@H](C)NC)C(C)C)C(=O)N[C@@H](Cc1c[nH]cn1)C(=O)N1CCC[C@H]1C(=O)N[C@@H](Cc1ccccc1)C(=O)O
2. CC[C@H](C)[C@H](NC(=O)[C@H](Cc1ccc(O)cc1)NC(=O)[C@@H](NC(=O)C(C)(C)N)C(C)C)C(=O)N[C@@H](Cc1c[nH]cn1)C(=O)N1CCC[C@H]1C(=O)N[C@@H](Cc1ccccc1)C(=O)O (H-[Aib]VYIHPF-OH)

1: 1.93; 2: 1.78
